# MEASUREMENT_TARGET: T1, his-tagged human CDH6 extracellular region protein (hCDH6 ECD-his) (human, UniProt P55285 19-615)
# T1 construct: also called Human CDH6-his; hCDH6-his; not shown: his tag
# T1 sequence: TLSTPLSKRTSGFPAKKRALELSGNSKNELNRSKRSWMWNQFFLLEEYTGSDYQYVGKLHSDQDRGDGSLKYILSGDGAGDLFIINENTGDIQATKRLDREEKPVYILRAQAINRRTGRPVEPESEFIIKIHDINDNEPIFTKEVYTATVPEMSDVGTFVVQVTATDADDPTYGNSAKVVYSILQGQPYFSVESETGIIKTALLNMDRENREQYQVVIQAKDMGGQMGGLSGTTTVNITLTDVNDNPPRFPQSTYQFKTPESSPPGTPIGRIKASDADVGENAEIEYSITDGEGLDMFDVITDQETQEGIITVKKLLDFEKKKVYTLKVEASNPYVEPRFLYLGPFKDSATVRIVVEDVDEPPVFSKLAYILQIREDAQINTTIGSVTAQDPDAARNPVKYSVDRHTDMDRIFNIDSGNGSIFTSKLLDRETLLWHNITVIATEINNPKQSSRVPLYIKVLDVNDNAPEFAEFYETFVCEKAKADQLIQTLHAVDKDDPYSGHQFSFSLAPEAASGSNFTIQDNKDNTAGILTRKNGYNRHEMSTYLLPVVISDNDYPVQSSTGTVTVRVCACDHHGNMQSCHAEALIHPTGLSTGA
# METHOD_DESCRIPTION: SPR Biacore 8K, antibody captured on Protein A
Would you mind telling me the reported pKd of each entry?
Numbers only, as −log10 of the molar value.

# BINDER, PARAMETER_MEASURED, RESULT_NUMBER
rows = [
    ("CHI-CDH6-10 (antibody, human IgG1, kappa, V domains shown, also called chimeric antibody of murine CDH6-10) VH: QVQLQQPGAELVKPGTSVKMSCKASGYTFTSDWIAWVKQRPGQGLEWIGDIYPGSGRTHNNEKFNFKATLTVDTSSNTAYMQLSSLTSEDSAVYFCARPMLGRFDYWGQGTTLTVSS VL: DIVLTQSPASLAVSLGQRATISCRASESVSIHGTHLMHWYQQKPGQPPKLLIYAASNLESGVPARFSGSGSETDFTLNIHPVEEEDAATYFCQQSFEDPFTFGSGTKLEIKR", "pKd", 7.69),
    ("CHI-CDH6-8 (antibody, human IgG1, kappa, V domains shown, also called chimeric antibody of murine CDH6-8) VH: EVQLQQSGPELVKPGDSVKMSCKASGYTFTDYYMAWIKQNHGKSLEWIGYIYPNNGGTDYNQKFRGKATLTVDKSSSAAYMELHSLTSEDSAVYYCAREIGTLYGDYYAMDYWGQGTSVTVSS VL: DIQMTQSPASLSASVGETVTITCRASENIDSYLAWYQQKQGKSPQLLVYTATLLADGVPSRFSGSGSGTQYSLKINSLQSEDVARYYCQHYYSTPPTFGSGTKLEIKR", "pKd", 7.51),
    ("CHI-CDH6-1 (antibody, human IgG1, kappa, V domains shown, also called CHI-hCDH6-1; CH1-CDH6-1) VH: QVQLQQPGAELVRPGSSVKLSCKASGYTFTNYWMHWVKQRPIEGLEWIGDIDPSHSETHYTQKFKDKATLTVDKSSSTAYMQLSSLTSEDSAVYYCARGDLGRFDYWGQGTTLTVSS VL: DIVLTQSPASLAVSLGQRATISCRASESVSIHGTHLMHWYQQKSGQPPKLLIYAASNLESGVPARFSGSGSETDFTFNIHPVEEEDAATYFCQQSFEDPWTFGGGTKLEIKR", "pKd", 8.05),
]

Then there is this binder:
INPUT: # pKd lookup, item CHI-CDH6-9 (antibody, human IgG1, kappa, V domains shown, also called chimeric antibody of murine CDH6-9) VH: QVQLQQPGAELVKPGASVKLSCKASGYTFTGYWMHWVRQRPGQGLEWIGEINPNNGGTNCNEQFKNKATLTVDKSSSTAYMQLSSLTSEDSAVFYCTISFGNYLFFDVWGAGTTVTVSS VL: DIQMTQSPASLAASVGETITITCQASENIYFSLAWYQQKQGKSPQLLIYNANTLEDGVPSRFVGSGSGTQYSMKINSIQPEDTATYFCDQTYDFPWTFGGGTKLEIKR
OUTPUT: 6.86
